Entry source: paper PMC12577307

- Assayed system: TphKP.Man (Pseudomonas mandelii, UniProt A0A024E7Y9)
- Construct: full-length transporter expressed in Pseudomonas putida KT2440 with TphR-sfGFP reporter plasmid
- Test name: uptake-coupled TphR-sfGFP biosensor dose response in P. putida KT2440
Experimental readout: pEC50
Conceptually, pEC50 converts a concentration in mol/L into minus its log10.

Item: O=C(O)c1ccc(C(=O)O)cc1 | pEC50: 4.84

* * *

- Assayed system: PcaKN.Ani (Neisseria animalis)
- Construct: full-length transporter expressed in Pseudomonas putida KT2440 delta-pcaK with PcaV-sfGFP reporter plasmid; 4,5-cleavage pathway operon
- Sequence (A0A5P3MSQ9 entry or part of it): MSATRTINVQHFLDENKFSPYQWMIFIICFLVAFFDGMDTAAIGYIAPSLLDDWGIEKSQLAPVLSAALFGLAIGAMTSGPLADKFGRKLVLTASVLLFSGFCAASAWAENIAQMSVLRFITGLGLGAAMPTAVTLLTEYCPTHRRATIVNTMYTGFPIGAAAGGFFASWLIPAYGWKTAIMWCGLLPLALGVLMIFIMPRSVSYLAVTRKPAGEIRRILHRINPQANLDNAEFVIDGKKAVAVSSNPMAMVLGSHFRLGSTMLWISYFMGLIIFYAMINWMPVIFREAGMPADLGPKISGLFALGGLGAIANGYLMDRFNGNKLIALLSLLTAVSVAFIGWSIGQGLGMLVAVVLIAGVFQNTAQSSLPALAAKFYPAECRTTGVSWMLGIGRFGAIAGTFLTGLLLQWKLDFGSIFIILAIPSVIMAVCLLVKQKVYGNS
- Test name: uptake-coupled PcaV-sfGFP biosensor dose response in P. putida KT2440 delta-pcaK
Experimental readout: pEC50
Conceptually, pEC50 converts a concentration in mol/L into minus its log10.

Item: O=C(O)c1ccc(O)c(O)c1 [P2, protocatechuic acid] | pEC50: 3.07
